FYI, the data here is from ChEMBL document CHEMBL1240414.

# Test system: Mus musculus
# test: Neurotoxicity in Kunming mouse assessed as minimum motor impairment at 30 mg/kg, ip after 0.5 hrs by rotarod test
# Type: toxicity, organism-based
# Set-up: dose 30 mg/kg, route intraperitoneal
# condition_details: in vivo
observed_property: Activity

Here is how some molecules turned out for Activity.
{"columns": ["molecule", "assay_system", "Activity"],
 "data": [
  ["CN1C(=O)NC2(CC2c2ccc(Br)cc2)C1=O (stereo not drawn)", "Mus musculus", "Non-toxic"],
  ["CC(C)C1CC12NC(=O)N(C)C2=O (stereo not drawn)", "Mus musculus", "Non-toxic"],
  ["CCCCC1CC12NC(=O)N(C)C2=O (stereo not drawn)", "Mus musculus", "Non-toxic"],
  ["COc1ccc(C2CC23NC(=O)N(C)C3=O)cc1 (stereo not drawn)", "Mus musculus", "Non-toxic"],
  ["CN1C(=O)NC2(CC2c2ccc(Cl)cc2)C1=O (stereo not drawn)", "Mus musculus", "Non-toxic"],
  ["COc1ccc(OC)c(C2CC23NC(=O)N(C)C3=O)c1 (stereo not drawn)", "Mus musculus", "Non-toxic"],
  ["COc1ccc(C2CC23NC(=O)N(C)C3=O)c(OC)c1OC (stereo not drawn)", "Mus musculus", "Non-toxic"],
  ["CN1C(=O)NC2(CC2c2ccccc2)C1=O (stereo not drawn)", "Mus musculus", "Non-toxic"]
]}

Identify Activity associated with the molecule CC(C)CC1CC12NC(=O)N(C)C2=O (stereo not drawn) Toxic

Identify Activity associated with the molecule CCC1CC12NC(=O)N(C)C2=O (stereo not drawn) Non-toxic

Identify Activity associated with the molecule CCCC1CC12NC(=O)N(C)C2=O (stereo not drawn) Toxic

Identify Activity associated with the molecule COc1cc(C2CC23NC(=O)N(C)C3=O)cc(OC)c1OC (stereo not drawn) Non-toxic

Identify Activity associated with the molecule CN1C(=O)NC2(CC2c2ccc(F)cc2)C1=O (stereo not drawn) Non-toxic

* * *

# Tested on: Mus musculus
# test: Anticonvulsant activity in Kunming mouse assessed as protection against maximal electroshock-induced seizures at 100 mg/kg, ip after 4 hrs
# Assay type: functional, organism-based
# Parameters: dose 100 mg/kg
Calls of active or inactive are those of the source. The calls are words filed in the database; no cut-off is given here.
Can you answer with just one of these options? yes (1) for active, no (0) for inactive

Any idea what this test logged for COc1ccc(C2CC23NC(=O)N(C)C3=O)cc1 (configuration not stated) ? no (0)

Any idea what this test logged for CN1C(=O)NC2(CC2c2ccc(F)cc2)C1=O (configuration not stated) ? yes (1)

Any idea what this test logged for CN1C(=O)NC2(CC2c2ccccc2Cl)C1=O (configuration not stated) ? no (0)

Any idea what this test logged for CN1C(=O)NC2(CC2c2ccc(Br)cc2)C1=O (configuration not stated) ? no (0)

Any idea what this test logged for CN1C(=O)NC2(CC2c2ccc(S(C)(=O)=O)cc2)C1=O (configuration not stated) ? yes (1)

Any idea what this test logged for CCC(CC)C1CC12NC(=O)N(C)C2=O (configuration not stated) ? no (0)

Any idea what this test logged for CCC1CC12NC(=O)N(C)C2=O (configuration not stated) ? no (0)

* * *

# Tested on: Rattus norvegicus
# test: Anticonvulsant activity in Kunming rat assessed as protection against maximal electroshock-induced seizures at 30 mg/kg, po after 2 hrs
# Type: functional
Calls of active or inactive are those of the source. The rule behind the calls is not given here.

{"columns": ["molecule", "assay_system", "Activity"],
 "data": [
  ["CCCCC1CC12NC(=O)N(C)C2=O (centres undefined)", "Rattus norvegicus", "inactive"],
  ["CN1C(=O)NC2(CC2c2ccc(F)cc2)C1=O (centres undefined)", "Rattus norvegicus", "25%"],
  ["CN1C(=O)NC2(CC2c2ccccc2)C1=O (centres undefined)", "Rattus norvegicus", "inactive"],
  ["CN1C(=O)NC2(CC2c2ccc(S(C)(=O)=O)cc2)C1=O (centres undefined)", "Rattus norvegicus", "75%"]
]}

* * *

# System: Rattus norvegicus
# test: Anticonvulsant activity in Kunming rat assessed as protection against maximal electroshock-induced seizures at 30 mg/kg, po after 4 hrs
# Assay type: functional
Calls of active or inactive are those of the source. No cut-off for these calls is given here.

{"columns": ["compound", "assay_system", "Activity"],
 "data": [
  ["CN1C(=O)NC2(CC2c2ccc(F)cc2)C1=O (centres undefined)", "Rattus norvegicus", "inactive"],
  ["CCCCC1CC12NC(=O)N(C)C2=O (centres undefined)", "Rattus norvegicus", "inactive"],
  ["CN1C(=O)NC2(CC2c2ccc(S(C)(=O)=O)cc2)C1=O (centres undefined)", "Rattus norvegicus", "75%"],
  ["CN1C(=O)NC2(CC2c2ccccc2)C1=O (centres undefined)", "Rattus norvegicus", "inactive"]
]}

* * *

# System: Mus musculus
# test: Neurotoxicity in Kunming mouse assessed as minimum motor impairment at 300 mg/kg, ip after 4 hrs by rotarod test
# Format: toxicity, organism-based
# Set-up: dose 300 mg/kg, route intraperitoneal
# condition_details: in vivo
observed_property: Activity

Here is how some compounds turned out for Activity.
{"columns": ["compound", "Activity"],
 "data": [
  ["CN1C(=O)NC2(CC2c2ccc(S(C)(=O)=O)cc2)C1=O (configuration not stated)", "Non-toxic"],
  ["Cc1ccc(C2CC23NC(=O)N(C)C3=O)cc1 (configuration not stated)", "Non-toxic"],
  ["CCCC1CC12NC(=O)N(C)C2=O (configuration not stated)", "Toxic"],
  ["CN1C(=O)NC2(CC2c2ccccc2Cl)C1=O (configuration not stated)", "Toxic"]
]}

Given CC(C)CC1CC12NC(=O)N(C)C2=O (configuration not stated) , report its Activity on Mus musculus. Non-toxic

Given COc1cccc(C2CC23NC(=O)N(C)C3=O)c1OC (configuration not stated) , report its Activity on Mus musculus. Non-toxic

Given COc1ccc(C2CC23NC(=O)N(C)C3=O)cc1 (configuration not stated) , report its Activity on Mus musculus. Non-toxic

Given CCC(CC)C1CC12NC(=O)N(C)C2=O (configuration not stated) , report its Activity on Mus musculus. Non-toxic

Given CCCCC1CC12NC(=O)N(C)C2=O (configuration not stated) , report its Activity on Mus musculus. Non-toxic

Given COc1ccc(C2CC23NC(=O)N(C)C3=O)c(OC)c1OC (configuration not stated) , report its Activity on Mus musculus. Non-toxic

Given COc1cc(C2CC23NC(=O)N(C)C3=O)cc(OC)c1OC (configuration not stated) , report its Activity on Mus musculus. Non-toxic

Given CN1C(=O)NC2(CC2c2ccc(F)cc2)C1=O (configuration not stated) , report its Activity on Mus musculus. Non-toxic

* * *

# Tested on: Mus musculus
# test: Anticonvulsant activity in Kunming mouse assessed as protection against subcutaneous pentylenetetrazole-induced seizures at 300 mg/kg, ip after 0.5 hrs
# Type: functional, organism-based
# Design: dose 300 mg/kg
Calls of active or inactive are those of the source. The calls are words filed in the database; no cut-off is given here.
Can you answer with just one of these options? active, inactive

Any idea what this test logged for CCC1CC12NC(=O)N(C)C2=O (stereo unspecified) ? inactive

Any idea what this test logged for CN1C(=O)NC2(CC2c2ccco2)C1=O (stereo unspecified) ? inactive

Any idea what this test logged for CN1C(=O)NC2(CC2c2ccc(S(C)(=O)=O)cc2)C1=O (stereo unspecified) ? active

Any idea what this test logged for CCCC1CC12NC(=O)N(C)C2=O (stereo unspecified) ? inactive

Any idea what this test logged for CC(C)C1CC12NC(=O)N(C)C2=O (stereo unspecified) ? inactive

Any idea what this test logged for COc1ccc(OC)c(C2CC23NC(=O)N(C)C3=O)c1 (stereo unspecified) ? inactive

Any idea what this test logged for CN1C(=O)NC2(CC2c2ccccc2)C1=O (stereo unspecified) ? inactive

Any idea what this test logged for CN1C(=O)NC2(CC2c2ccc(Br)cc2)C1=O (stereo unspecified) ? inactive

Any idea what this test logged for CN1C(=O)NC2(CC2c2ccccc2Cl)C1=O (stereo unspecified) ? inactive

Any idea what this test logged for CN1C(=O)NC2(CC2c2ccc(F)cc2)C1=O (stereo unspecified) ? active

Any idea what this test logged for CCC(CC)C1CC12NC(=O)N(C)C2=O (stereo unspecified) ? inactive

* * *

# Tested on: Mus musculus
# test: Neurotoxicity in Kunming mouse assessed as minimum motor impairment at 300 mg/kg, ip after 0.5 hrs by rotarod test
# Type: toxicity, organism-based
# Parameters: dose 300 mg/kg, route intraperitoneal
# condition_details: in vivo
observed_property: Activity

Here is how some compounds turned out for Activity.
{"columns": ["compound", "Activity"],
 "data": [
  ["CN1C(=O)NC2(CC2c2ccccc2Cl)C1=O (stereo not given)", "Toxic"],
  ["CC(C)CC1CC12NC(=O)N(C)C2=O (stereo not given)", "Toxic"],
  ["CCCCC1CC12NC(=O)N(C)C2=O (stereo not given)", "Non-toxic"],
  ["CCC(CC)C1CC12NC(=O)N(C)C2=O (stereo not given)", "Non-toxic"]
]}

Identify Activity associated with the compound CN1C(=O)NC2(CC2c2ccc(Br)cc2)C1=O (stereo not given) Non-toxic

Identify Activity associated with the compound COc1cc(C2CC23NC(=O)N(C)C3=O)cc(OC)c1OC (stereo not given) Non-toxic

Identify Activity associated with the compound COc1ccc(C2CC23NC(=O)N(C)C3=O)c(OC)c1OC (stereo not given) Non-toxic

Identify Activity associated with the compound CCCC1CC12NC(=O)N(C)C2=O (stereo not given) Toxic

Identify Activity associated with the compound CCC1CC12NC(=O)N(C)C2=O (stereo not given) Non-toxic
